# Test conditions: 293.15 K; 101.33 kPa; Liquid; Capillary tube (Ostwald / Ubbelohde) method
Endpoint: viscosity (mPa·s)

compound="CC(O)CO (centres undefined)" unit=mPa·s observed_result=56.21
compound="CCC(O)CO (centres undefined)" unit=mPa·s observed_result=71.87
compound="CCCCC(O)CO (centres undefined)" unit=mPa·s observed_result=83.41
compound="CCCC(O)CO (centres undefined)" unit=mPa·s observed_result=76.96

----------
# Test conditions: 313.15 K; 101.33 kPa; Liquid; Capillary tube (Ostwald / Ubbelohde) method
Endpoint: viscosity (mPa·s)

molecule="CCCC(O)CO (centres undefined) [1,2-pentanediol]" observed_result=22.52
molecule="CCCCC(O)CO (centres undefined) [1,2-hexanediol]" observed_result=24.12
molecule="CC(O)CO (centres undefined) [1,2-propanediol]" observed_result=19.58
molecule="CCC(O)CO (centres undefined) [1,2-butanediol]" observed_result=21.49

----------
# Test conditions: 303.15 K; 101.33 kPa; Liquid; Capillary tube (Ostwald / Ubbelohde) method
Endpoint: viscosity (mPa·s)

molecule="CCCCC(O)CO (centres undefined) [1,2-hexanediol]" observed_result=42.25
molecule="CCC(O)CO (centres undefined) [1,2-butanediol]" observed_result=37.86
molecule="CCCC(O)CO (centres undefined) [1,2-pentanediol]" observed_result=39.16
molecule="CC(O)CO (centres undefined) [1,2-propanediol]" observed_result=32.63

----------
# Test conditions: 323.15 K; 101.33 kPa; Liquid; Capillary tube (Ostwald / Ubbelohde) method
Endpoint: viscosity (mPa·s)

compound="CCCCC(O)CO (centres undefined)" endpoint=viscosity observed_result=14.79
compound="CC(O)CO (centres undefined)" endpoint=viscosity observed_result=12.79
compound="CCCC(O)CO (centres undefined)" endpoint=viscosity observed_result=13.66
compound="CCC(O)CO (centres undefined)" endpoint=viscosity observed_result=13.12
